Test: Cytotoxicity against mouse peritoneal macrophages assessed as live cells at 50 uM by calcein AM assay
Assay type: cell-based, Peritoneal macrophage cell
Conditions: read-out: Activity

entrySmiles	viability at 50 µM / %
N=C(N)NCCC[C@@H](NC(=O)[C@@H](CS)NC(=O)[C@@H](Cc1ccc(O)cc1)NC(=O)[C@@H](Cc1c[nH]c2ccccc12)NC(=O)[C@@H](CCCNC(=N)N)NC(=O)[C@H](N)Cc1c[nH]c2ccccc12)C(=O)O	94.2

---

Experiment: Cytotoxicity against mouse peritoneal macrophages assessed as live cells at 150 uM by calcein AM assay
Assay type: cell-based, Peritoneal macrophage cell
Conditions: read-out: Activity

entrySmiles	viability at 150 µM [%]
N=C(N)NCCC[C@@H](NC(=O)[C@@H](CS)NC(=O)[C@@H](Cc1ccc(O)cc1)NC(=O)[C@@H](Cc1c[nH]c2ccccc12)NC(=O)[C@@H](CCCNC(=N)N)NC(=O)[C@H](N)Cc1c[nH]c2ccccc12)C(=O)O	87.9
